Hello, the source for this data is patent US20090192048A1, in case you need it.

Test Name: Retention of peptides in V-bottomed polypropylene wells
Type: physicochemical
Condition Description: V-bottom wells; 500V scan; washed 15 minutes in 1 M NaCl in 10 mM tris-HCl (pH 8.0)
Ends that are not written are not given here.
Measurement Name: Retained fluorescence

INSERT INTO assay_data (substance, measurement_name, result) VALUES
  ('N-TAMRA-Asp-Phe- Asp-Phe-Asp-Phe- Asp-C ({TAMRA}-DFDFDFD) [Peptide 2DOS-14]', 'Retained fluorescence', '1,018,179');

[ask] Any idea what Retained fluorescence was measured for N-TAMRA-Asp-Phe- Ala-Phe-Ser-Phe- Lys-C ({TAMRA}-DFAFSFK) [Peptide 2DOS-6] ?
[reply] 3,527,116

[ask] Queued: N-TAMPA-Asp-Asp- Ala-Asp-Ser-Asp- Lys-C ({TAMRA}-DDADSDK) [Peptide 2DOS-8]
[reply] 202,943

---

Test Name: Retention of peptides P1-1 to P1-5 on a polypropylene sheet after successive washes
Type: physicochemical
Condition Description: after third wash: water, 30 minutes; background subtracted
Method: Further experiments were undertaken to investigate the retention of peptides P1-1 to, P1-5 and P2-1 to P2-2, shown in Table 3, on a polypropylene surface. The polypropylene sheet was wiped with 50% (v/v) aqueous acetonitrile prior to use. 8× replicate 20 nl volumes of 1 μM peptides P1-1 to P1-5 and P2-1 to P2-2 and TAMRA in dimethyl sulphoxide (DMSO) were dispensed at 1 mm spacing to a 3″×1″×1 mm polypropylene sheet using the Piezorray system (PerkinElmer LAS). […]
Ends that are not written are not given here.
Measurement Name: Corrected signal, test array

Some solved entries appear below for comparison.
INSERT INTO assay_data (substance, result) VALUES
  ('TAMRA-F-G-F-G-F-S-F-A-F-D-F-G-F ({TAMRA}-FGFGFSFAFDFGF) [Peptide P1-2]', '1,895,931'),
  ('TAMRA-F-G-F-G-F-G-F-S-F-A-F-D-F-G-F ({TAMRA}-FGFGFGFSFAFDFGF) [Peptide P1-3]', '1,420,417'),
  ('TAMRA-F-G-F-G-F-G-F-G-F-S-F-A-F-D-F-G-F ({TAMRA}-FGFGFGFGFSFAFDFGF) [Peptide P1-4]', '11,383,947'),
  ('TAMRA-F-G-F-G-F-G-F-G-F-G-F-S-F-A-F-D-F-G-F ({TAMRA}-FGFGFGFGFGFSFAFDFGF) [Peptide P1-5]', '23,514,817');

[ask] Find the recorded Corrected signal, test array belonging to TAMRA-F-G-F-S-F-A-F-D-F-G-F ({TAMRA}-FGFSFAFDFGF) [Peptide P1-1] and report it.
[reply] 644,716

---

Test Name: Retention of peptides 2DOS-1 to 2DOS-16 on a hydrophobic surface (polypropylene microtitre plate wells), water wash
Assay type: physicochemical
Condition Description: 400V scan; dried, washed ten times with 250 μl water, resuspended
Ends that are not written are not given here.
Measurement Name: Recovered fluorescence (×10^3)

These solved cases illustrate the format of a correct answer.
INSERT INTO results (substance, result) VALUES
  ('N-TAMRA-Asp-Ser- Asp-Ser-Asp-Ser- Asp-C ({TAMRA}-DSDSDSD) [Peptide 2DOS-15]', '2 ×10^3'),
  ('N-TAMRA-Ser-Asp- Ser-Ala-Ser-Ser- Ser-Lys-Ser-C ({TAMRA}-SDSASSSKS) [Peptide 2DOS-3]', '8 ×10^3'),
  ('N-TAMRA-Phe-Asp- Phe-Ala-Phe-Ser- Phe-Lys-Phe-C ({TAMRA}-FDFAFSFKF) [Peptide 2DOS-2]', '15,704 ×10^3'),
  ('N-TAMPA-Asp-Asp- Asp-Asp-Asp-Asp- Asp-Asp-Asp-C ({TAMRA}-DDDDDDDDD) [Peptide 2DOS-12]', '1 ×10^3'),
  ('N-TAMRA-Asp-Phe- Asp-Phe-Asp-Phe- Asp-C ({TAMRA}-DFDFDFD) [Peptide 2DOS-14]', '283 ×10^3'),
  ('N-TAMRA-Asp-Ser- Ala-Ser-Ser-Ser- Lys-C ({TAMRA}-DSASSSK) [Peptide 2DOS-7]', '0 ×10^3');

[ask] Request the reported Recovered fluorescence (×10^3) associated with N-TAMRA-Ser-Asp- Ser-Asp-Ser-Asp- Ser-Asp-Ser-C ({TAMRA}-SDSDSDSDS) [Peptide 2DOS-11]
[reply] 0 ×10^3

[ask] Also check N-TAMPA-Asp-Asp- Asp-Asp-Asp-Asp- Asp-C ({TAMRA}-DDDDDDD) [Peptide 2DOS-16]
[reply] 3 ×10^3
